B1: TPR 5TU (parent)
chain: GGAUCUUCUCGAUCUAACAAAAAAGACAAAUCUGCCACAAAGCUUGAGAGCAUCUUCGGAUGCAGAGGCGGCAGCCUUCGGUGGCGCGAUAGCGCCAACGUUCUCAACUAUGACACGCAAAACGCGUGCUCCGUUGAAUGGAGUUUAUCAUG

Variants of: B1
Assay: polymerase ribozyme fitness, log enrichment relative to wild type (log ratio); higher = more active; in vitro selection for triplet polymerase activity
This sample holds only a part of the variants without activity.
Label rule, in plain words: polymerase ribozyme fitness (log ratio) of -2 and up is Condition met, under -2 is Condition not met.

- mutationAnnotation: "A19C C57A C131A"
  categoryLabel: "Condition not met"
- mutationAnnotation: "A17U A30G G42U G81C C85U A122U"
  categoryLabel: "Condition not met"
- mutationAnnotation: "A49C G68A U102G A107G"
  categoryLabel: "Condition not met"
- mutationAnnotation: "A12G A23C G25A A41G G94C C96U C116U G143C"
  categoryLabel: "Condition not met"
- mutationAnnotation: "C51U A52G A60U A66G C103U A107U C114U C123G G143A"
  categoryLabel: "Condition not met"
- mutationAnnotation: "U82C C95G"
  categoryLabel: "Condition not met"
- mutationAnnotation: "C57A G86U C123U C125U"
  categoryLabel: "Condition met"
- mutationAnnotation: "U13G U55A G94A G100A G140U"
  categoryLabel: "Condition not met"
- mutationAnnotation: "C57A C87U"
  categoryLabel: "Condition met"
- mutationAnnotation: "A29U U44A A49C C57U G88U"
  categoryLabel: "Condition not met"
- mutationAnnotation: "G48C U55A A122U"
  categoryLabel: "Condition met"
